System: T.b. rhodesiense, strain STIB 900 trypomastigotes
Assay: In vitro growth inhibition of bloodstream form T. b. rhodesiense trypomastigotes
Assay type: cell-based
Settings: Trypanosoma brucei, RHODESIENSE|STIB900, read-out: T.b.rhod. IC50
property-measured: IC50 (nM)

1) Nc1nc(N)nc(Nc2ccc([As]3SCC(CO)S3)cc2)n1 (stereo not shown) [Melars., Melarsoprol, reference compound]    12
